Assay: The drug is tested on Ruminococcus gnavus strain: ATCC29149 for biotransformation. The drug concentrations were measured before and after a 12-h incubation by liquid-chromatography-coupled mass spectrometry (LC–MS)
Settings: mediterraneibacter gnavus, 2 µM
readout.kind: Bacterial Biotransformation

CCN1CCCC1CNC(=O)c1cc(S(N)(=O)=O)ccc1OC (stereo not drawn) [SULPIRIDE]; Compound NOT metabolized
COc1ccc2cc([C@H](C)C(=O)O)ccc2c1; Compound NOT metabolized
O=C1[C@H](CC[C@H](O)c2ccc(F)cc2)[C@@H](c2ccc(O)cc2)N1c1ccc(F)cc1; Compound NOT metabolized
CN1CCc2cccc3c2[C@H]1Cc1ccc(O)c(O)c1-3; Compound NOT metabolized

In plain terms, Cc1cc(C)cc(OCC2CNC(=O)O2)c1 (stereo not drawn) has a documented Bacterial Biotransformation of Compound NOT metabolized

In plain terms, CN1CCOC(c2ccccc2)c2ccccc2C1 (stereo not drawn) has a documented Bacterial Biotransformation of Compound NOT metabolized

In plain terms, CCOc1ccc2nc(S(N)(=O)=O)sc2c1 [ETHOXZOLAMIDE] has a documented Bacterial Biotransformation of Compound metabolized

In plain terms, CN1CCC[C@@H]1CCO[C@](C)(c1ccccc1)c1ccc(Cl)cc1.O=C(O)/C=C/C(=O)O [CLEMASTINE FUMARATE] has a documented Bacterial Biotransformation of Compound NOT metabolized

In plain terms, CCS(=O)(=O)CCn1c([N+](=O)[O-])cnc1C has a documented Bacterial Biotransformation of Compound metabolized

In plain terms, C[C@H]1O[C@@H](O[C@H]2[C@@H](O)C[C@H](O[C@H]3[C@@H](O)C[C@H](O[C@H]4CC[C@@]5(C)[C@H](CC[C@@H]6[C@@H]5C[C@@H](O)[C@]5(C)[C@@H](C7=CC(=O)OC7)CC[C@]65O)C4)O[C@@H]3C)O[C@@H]2C)C[C@H](O)[C@@H]1O has a documented Bacterial Biotransformation of Compound NOT metabolized

In plain terms, CC(N)C12CC3CC(CC(C3)C1)C2 (stereo not drawn) has a documented Bacterial Biotransformation of Compound NOT metabolized

In plain terms, CO[C@]12C[C@@H](COC(=O)c3cncc(Br)c3)CN(C)[C@@H]1Cc1cn(C)c3cccc2c13 has a documented Bacterial Biotransformation of Compound NOT metabolized

====

Conditions: parabacteroides distasonis, 12 h, 2 µM
Description: The drug is tested on Parabacteroides distasonis strain: ATCC8503 for biotransformation. The drug concentrations were measured before and after a 12-h incubation by liquid-chromatography-coupled mass spectrometry (LC–MS)
readout.kind: Bacterial Biotransformation

Please review the following examples before continuing.
Nc1ccc(/N=N/c2ccccc2)c(N)n1; Compound metabolized
CC(C)c1c(CN(C)C(C)Cc2ccccc2)n(C)n(-c2ccccc2)c1=O (configuration not stated); Compound metabolized
Cc1nc2n(c(=O)c1CCN1CCC(c3noc4cc(F)ccc34)CC1)CCCC2; Compound NOT metabolized
COc1ccc(/C=C/C(=O)Nc2ccccc2C(=O)O)cc1OC; Compound NOT metabolized
CC(=O)O[C@]1(C(C)=O)CC[C@H]2[C@@H]3C=C(C)C4=CC(=O)CC[C@]4(C)[C@H]3CC[C@@]21C [MEGESTROL ACETATE]; Compound metabolized

In plain terms, COc1ccc([C@@H]2Sc3ccccc3N(CCN(C)C)C(=O)[C@@H]2OC(C)=O)cc1 has a documented Bacterial Biotransformation of Compound metabolized

In plain terms, C[C@]12CCC(=O)C=C1[C@@H]1C[C@@H]1[C@H]1[C@@H]3[C@@H]4C[C@@H]4[C@@]4(CCC(=O)O4)[C@@]3(C)CC[C@@H]12 has a documented Bacterial Biotransformation of Compound NOT metabolized

In plain terms, C[C@@H](c1ncncc1F)[C@](O)(Cn1cncn1)c1ccc(F)cc1F has a documented Bacterial Biotransformation of Compound metabolized

In plain terms, C#C[C@]1(OC(C)=O)CC[C@H]2[C@@H]3CCC4=C[C@@H](OC(C)=O)CC[C@@H]4[C@H]3CC[C@@]21C [ETHYNODIOL DIACETATE] has a documented Bacterial Biotransformation of Compound NOT metabolized

In plain terms, CN1CCC[C@@H]1CCO[C@](C)(c1ccccc1)c1ccc(Cl)cc1.O=C(O)/C=C/C(=O)O [CLEMASTINE FUMARATE] has a documented Bacterial Biotransformation of Compound metabolized

In plain terms, OCCN(CCO)c1nc(N2CCCCC2)c2nc(N(CCO)CCO)nc(N3CCCCC3)c2n1 has a documented Bacterial Biotransformation of Compound NOT metabolized

In plain terms, CCCCCNC(=N)N/N=C/c1c[nH]c2ccc(OC)cc12.O=C(O)/C=C\C(=O)O [TEGASEROD MALEATE] has a documented Bacterial Biotransformation of Compound NOT metabolized

In plain terms, CCN(CC)CCNC(=O)c1cc(S(C)(=O)=O)ccc1OC [TIAPRIDE] has a documented Bacterial Biotransformation of Compound NOT metabolized

In plain terms, CCOc1ccc2nc(S(N)(=O)=O)sc2c1 [ETHOXZOLAMIDE] has a documented Bacterial Biotransformation of Compound metabolized

In plain terms, COc1cc2c(c(OC)c1OC)-c1ccc(OC)c(=O)cc1[C@@H](NC(C)=O)CC2 has a documented Bacterial Biotransformation of Compound metabolized

In plain terms, CCN(CC)C(=O)/C(C#N)=C/c1cc(O)c(O)c([N+](=O)[O-])c1 has a documented Bacterial Biotransformation of Compound metabolized

In plain terms, O=c1n(CCCN2CCN(c3cccc(Cl)c3)CC2)nc2ccccn12 has a documented Bacterial Biotransformation of Compound NOT metabolized
